Data provenance: patent US20240044920A1

Biological target: T1, human ceruloplasmin (human, UniProt P00450 20-1065)
T1 construct: also called CP; purified CP
T1 sequence: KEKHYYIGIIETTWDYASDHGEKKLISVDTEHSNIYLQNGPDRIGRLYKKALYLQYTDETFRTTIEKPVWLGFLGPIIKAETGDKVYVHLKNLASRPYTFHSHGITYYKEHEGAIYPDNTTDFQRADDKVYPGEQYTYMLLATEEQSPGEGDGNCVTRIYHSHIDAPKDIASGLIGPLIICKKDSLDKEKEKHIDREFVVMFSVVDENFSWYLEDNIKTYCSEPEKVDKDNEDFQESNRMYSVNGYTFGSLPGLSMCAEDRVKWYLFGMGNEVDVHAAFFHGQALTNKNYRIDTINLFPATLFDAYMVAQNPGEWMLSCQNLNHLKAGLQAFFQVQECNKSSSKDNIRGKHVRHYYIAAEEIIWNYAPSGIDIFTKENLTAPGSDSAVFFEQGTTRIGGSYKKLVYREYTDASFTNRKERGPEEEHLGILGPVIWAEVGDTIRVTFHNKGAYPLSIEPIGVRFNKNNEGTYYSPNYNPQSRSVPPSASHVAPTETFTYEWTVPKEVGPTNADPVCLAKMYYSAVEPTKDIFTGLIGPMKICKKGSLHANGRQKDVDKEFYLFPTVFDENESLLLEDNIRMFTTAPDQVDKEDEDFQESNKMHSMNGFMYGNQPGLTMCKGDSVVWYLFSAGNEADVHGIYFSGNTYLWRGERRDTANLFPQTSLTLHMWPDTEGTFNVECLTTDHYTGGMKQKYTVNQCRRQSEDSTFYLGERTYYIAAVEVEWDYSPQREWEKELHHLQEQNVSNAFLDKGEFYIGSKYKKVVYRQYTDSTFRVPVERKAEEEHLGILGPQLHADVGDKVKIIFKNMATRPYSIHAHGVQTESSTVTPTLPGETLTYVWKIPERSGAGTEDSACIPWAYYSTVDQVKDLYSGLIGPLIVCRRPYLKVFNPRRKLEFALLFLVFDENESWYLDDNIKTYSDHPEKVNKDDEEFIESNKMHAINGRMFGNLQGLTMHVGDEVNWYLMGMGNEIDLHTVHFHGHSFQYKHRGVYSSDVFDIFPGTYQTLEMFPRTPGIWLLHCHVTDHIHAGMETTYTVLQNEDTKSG
Experiment: competition ELISA on coated CP, biotinylated probe; competitor: mAb G
measuredEndpoint: probe binding, % of diluent control (%)

{"binder": "anti-CP mAb B (antibody, V domains shown, Recombinant full-length rabbit IgG from HEK-293; tested as conditioned medium, Protein A-purified and biotinylated) VH: QQQLEESGGGLVKPGGTLTLTCKASGIDFSSYYYMCWVRQAPGKGLEWIACIYVIDDTIYCANWAKGRFTISKTSSTTVTLQMTSLTAADTATYFCARDGSSGIRDYFDLWGPGTLVTVSS VL: AYDMTQTPASVEVAVGGTVTIKCQASESVSTWLAWYQQKPGQPPKLLIYKASDLASGVPSRFKGSGSGTEFTLTISGVECADAATYYCQQGYTYNNVENVFGGGTEVVVKG", "observed": 98}
